Test: Clearance in fed beagle dog at 1 mg/kg, iv after 0.083 to 24 hrs by LC-MS/MS method
Type: ADME, organism-based, Canis lupus familiaris
Condition Context: in vivo
Parameter Measured: clearance (mL/min/kg)
Give a bare numeral; the unit mL/min/kg is implied.

Qu. Name the recorded clearance for COP(=O)(c1cc(C)cc(/C=C/C#N)c1)c1c(C(N)=O)[nH]c2ccc(Cl)cc12 (single isomer, unassigned; form 1) .
Ans. 30.5

---

# key: entry, value: solubility
Test: Aqueous solubility of the compound at pH 7
Type: physicochemical
Condition Context: aqueous medium
Give a bare numeral; the unit µM is implied.

[
  {
    "Compound": "COP(=O)(c1cc(C)cc(F)c1)c1c(C(N)=O)[nH]c2ccc(Cl)cc12 (stereo not given)",
    "Parameter Measured": "solubility",
    "Recorded Number": 1.7
  }
]

Qu. Name the recorded solubility for COP(=O)(c1cc(C)cc(/C=C/C#N)c1)c1c(C(N)=O)[nH]c2ccc(Cl)cc12 (single isomer, unassigned; form 1) .
Ans. 20

Qu. Name the recorded solubility for COP(=O)(c1cc(C)cc(C)c1)c1c(C(N)=O)[nH]c2ccc(Cl)cc12 (stereo not given) .
Ans. 0.9

Qu. Name the recorded solubility for COP(=O)(c1cccc(C(C)C)c1)c1c(C(N)=O)[nH]c2ccc(Cl)cc12 (stereo not given) .
Ans. 0.8

---

Test: Half life in rat hepatocytes
Format: ADME, cell-based, Hepatocyte
Parameter Measured: half-life (min)
Give a bare numeral; the unit min is implied.

Qu. Name the recorded half-life for COP(=O)(c1cc(C)cc(/C=C/C#N)c1)c1c(C(N)=O)[nH]c2ccc(Cl)cc12 (single isomer, unassigned; form 1) .
Ans. 17

---

Test: Oral bioavailability in fed cynomolgus monkey at 5 mg/kg after 0.083 to 24 hrs by LC-MS/MS method
Type: ADME, organism-based, Macaca fascicularis
Condition Context: in vivo
Parameter Measured: bioavailability (%)
Give a bare numeral; the unit % is implied.

Qu. Name the recorded bioavailability for COP(=O)(c1cc(C)cc(/C=C/C#N)c1)c1c(C(N)=O)[nH]c2ccc(Cl)cc12 (single isomer, unassigned; form 1) .
Ans. 42

---

Test: Cmax in fasted Sprague-Dawley rat at 2 mg/kg, iv after 0.083 to 24 hrs by LC-MS/MS method
Format: ADME, organism-based
Parameters: dose 2 mg/kg, route intravenous
Condition Context: in vivo
Parameter Measured: Cmax (ng/mL)
Give a bare numeral; the unit ng/mL is implied.

Qu. Name the recorded Cmax for COP(=O)(c1cc(C)cc(/C=C/C#N)c1)c1c(C(N)=O)[nH]c2ccc(Cl)cc12 (single isomer, unassigned; form 1) [FOSDEVIRINE] .
Ans. 88

---

Test: Cmax in fed beagle dog at 1 mg/kg, iv after 0.083 to 24 hrs by LC-MS/MS method
Type: ADME, organism-based, Canis lupus familiaris
Design: dose 1 mg/kg, route intravenous
Condition Context: in vivo
Parameter Measured: Cmax (ng/mL)
Give a bare numeral; the unit ng/mL is implied.

Qu. Name the recorded Cmax for COP(=O)(c1cc(C)cc(/C=C/C#N)c1)c1c(C(N)=O)[nH]c2ccc(Cl)cc12 (single isomer, unassigned; form 1) .
Ans. 290

---

Test: Half life in fed beagle dog at 5 mg/kg, po by LC-MS/MS method
Type: ADME, organism-based, Canis lupus familiaris
Condition Context: in vivo
Parameter Measured: half-life (h)
Give a bare numeral; the unit h is implied.

Qu. Name the recorded half-life for COP(=O)(c1cc(C)cc(/C=C/C#N)c1)c1c(C(N)=O)[nH]c2ccc(Cl)cc12 (single isomer, unassigned; form 1) .
Ans. 2.4
